# Tested on: A. retroflexus
# protocol: Herbicidal activity by field soil treatment (Test example 2)
# Format: in vivo
# Design: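 index 0 to 10 in 10% steps of herbicidal effect with 10 meaning complete death and 0 below 10%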
# measurement-setup: 1000 g effective component per hectare, day 21 after the treatment
assay-readout: herbicidal effect index, Amaranthus retroflexus
Answer field: number only, no words.

Answered examples (6):
- smiles-data: "Cn1nc(C(=O)C2=C(O)CCCC2=O)c(=O)n(N2CCOCC2)c1=O"
  obs-value: 10
- smiles-data: "COCCCn1c(=O)c(C(=O)C2=C(O)CCCC2=O)nn(C)c1=O"
  obs-value: 10
- smiles-data: "Cn1nc(C(F)(F)F)cc1-n1c(=O)c(C(=O)C2=C(O)CCCC2=O)nn(C)c1=O"
  obs-value: 8
- smiles-data: "CCc1ccccc1-n1c(=O)c(C(=O)C2=C(O)CCCC2=O)nn(C)c1=O"
  obs-value: 10
- smiles-data: "Cn1nc(C(=O)C2=C(O)CCCC2=O)c(=O)n(-c2cc(F)c(F)c(F)c2)c1=O"
  obs-value: 10
- smiles-data: "CN(c1ccc(F)cc1)n1c(=O)c(C(=O)O)nn(C)c1=O"
  obs-value: 10

[in] Return herbicidal effect index, Amaranthus retroflexus for the following molecule: Cc1ccc(-n2c(=O)c(C(=O)C3=C(O)CCCC3=O)nn(C)c2=O)cn1
[out] 10

[in] Return herbicidal effect index, Amaranthus retroflexus for the following molecule: CC(CCn1c(=O)c(C(=O)C2=C(O)CCCC2=O)nn(C)c1=O)=C(F)F
[out] 10

[in] Return herbicidal effect index, Amaranthus retroflexus for the following molecule: Cn1nc(C(=O)C2=C(O)CCCC2=O)c(=O)n(-c2ccc(F)cc2F)c1=O
[out] 10

[in] Return herbicidal effect index, Amaranthus retroflexus for the following molecule: Cn1nc(C(=O)O)c(=O)n(-c2cc(C(F)(F)F)cc(C(F)(F)F)c2)c1=O
[out] 8

[in] Return herbicidal effect index, Amaranthus retroflexus for the following molecule: Cn1nc(C(=O)C2=C(O)CCCC2=O)c(=O)n(-c2ccc(F)cc2)c1=S
[out] 10

[in] Return herbicidal effect index, Amaranthus retroflexus for the following molecule: Cn1nc(C(=O)C2=C(O)CCCC2=O)c(=O)n(-c2ccc(Cl)cc2)c1=O
[out] 10

[in] Return herbicidal effect index, Amaranthus retroflexus for the following molecule: Cn1nc(C(=O)C2=C(O)CCCC2=O)c(=O)n(-c2ccc(F)cc2)c1=O
[out] 9

[in] Return herbicidal effect index, Amaranthus retroflexus for the following molecule: Cn1nc(C(=O)C2=C(O)CCCC2=O)c(=O)n(-c2ccc3c(c2)OCO3)c1=O
[out] 10
